# procedure-summary: Inhibition of guinea pig liver transglutaminase 2 using 5-(biotinamido)pentylamine as substrate by enzyme linked sorbent assay
# Parameters: species or system Cavia porcellus
# reported IC50; entries follow
Write it as a number; the unit µM goes unstated.

Solved entries:
>  <smiles-record>
C[S+](C)CC(=O)CC[C@H](NC(=O)[C@H](Cc1ccccc1)NC(=O)Cc1ccccc1)C(=O)O

>  <unit-tag>
µM

>  <IC50>
110

$$$$
>  <smiles-record>
C[S+](C)CC(=O)CC[C@H](NC(=O)[C@H](Cc1ccccc1)NC(=O)OCCc1ccccc1)C(=O)O

>  <unit-tag>
µM

>  <IC50>
8

$$$$

Next, consider the following compound.
# return recorded IC50 for input C[S+](C)CC(=O)CC[C@H](NC(=O)[C@H](Cc1ccccc1)NC(=O)OC(C)(C)C)C(=O)O
300
